system: MDM2 (Homo sapiens, UniProt Q00987)
Sequence (Q00987 1-125): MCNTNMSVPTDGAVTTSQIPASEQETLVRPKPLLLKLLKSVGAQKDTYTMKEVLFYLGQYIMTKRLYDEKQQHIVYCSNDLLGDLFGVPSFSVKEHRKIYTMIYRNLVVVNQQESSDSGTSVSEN
measurementProtocol: Competitive fluorescence polarization assay for MDM2
Assay type: binding
measurementParameters: competitive FP assay, MDM2; read-out: IC50 (MDM2)
pIC50: −log10 of the molar value.
measuredMetric: pIC50

Entry CCCC[C@H](NC(=O)[C@H](C)NC(=O)[C@H](C)NC(=O)[C@]1(C)CCCC=CCCCCCC[C@@](C)(NC(=O)[C@H](Cc2ccccc2)NC(=O)[C@@H](NC(=O)[C@H](CC(C)C)NC(C)=O)[C@@H](C)O)C(=O)N[C@@H](C)C(=O)N[C@@H](Cc2ccc(O)cc2)C(=O)N[C@@H](Cc2c[nH]c3ccccc23)C(=O)N[C@@H](C)C(=O)N[C@@H](CCC(N)=O)C(=O)N[C@@H](CC(C)C)C(=O)N1)C(=O)N[C@@H](C)C(=O)NC(C)(C)C(N)=O (single isomer, unassigned) ; assay system MDM2 (Homo sapiens, UniProt Q00987); pIC50 recorded at 7.00 to 8.00
